// values below are reported thermal stability score
- System: HeLa Kyoto
- assay.name: thermal stability score vs G1/S (z-score of summed log2 fold changes over temperatures); higher = more thermally stable than in G1/S
- test.conditions: cell cycle stage: early G1 (4.5 h after nocodazole release)

# count of solved cases: 3
MVVLSVPAEVTVILLDIEGTTTPIAFVKDILFPYIEENVKEYLQTHWEEEECQQDVSLLRKQAEEDAHLDGAVPIPAASGNGVDDLQQMIQAVVDNVCWQMSLDRKTTALKQLQGHMWRAAFTAGRMKAEFFADVVPAVRKWREAGMKVYIYSSGSVEAQKLLFGHSTEGDILELVDGHFDTKIGHKVESESYRKIADSIGCSTNNILFLTDVTREASAAEEADVHVAVVVRPGNAGLTDDEKTYYSLITSFSELYLPSST [ENOPH1] | 2.1
MAAAEPAVLALPNSGAGGAGAPSGTVPVLFCFSVFARPSSVPHGAGYELLIQKFLSLYGDQIDMHRKFVVQLFAEEWGQYVDLPKGFAVSERCKVRLVPLQIQLTTLGNLTPSSTVFFCCDMQERFRPAIKYFGDIISVGQRLLQGARILGIPVIVTEQYPKGLGSTVQEIDLTGVKLVLPKTKFSMVLPEVEAALAEIPGVRSVVLFGVETHVCIQQTALELVGRGVEVHIVADATSSRSMMDRMFALERLARTGIIVTTSEAVLLQLVADKDHPKFKEIQNLIKASAPESGLLSKV [ISOC1] | -1.52
MRSGGRGRPRLRLGERGLMEPLLPPKRRLLPRVRLLPLLLALAVGSAFYTIWSGWHRRTEELPLGRELRVPLIGSLPEARLRRVVGQLDPQRLWSTYLRPLLVVRTPGSPGNLQVRKFLEATLRSLTAGWHVELDPFTASTPLGPVDFGNVVATLDPRAARHLTLACHYDSKLFPPGSTPFVGATDSAVPCALLLELAQALDLELSRAKKQAAPVTLQLLFLDGEEALKEWGPKDSLYGSRHLAQLMESIPHSPGPTRIQAIELFMLLDLLGAPNPTFYSHFPRTVRWFHRLRSIEKRLHRLNLLQSHPQEVMYFQPGEPFGSVEDDHIPFLRRGVPVLHLISTPFPAVWHTPADTEVNLHPPTVHNLCRILAVFLAEYLGL [QPCTL] | 3.48

Let me know recorded thermal stability score for MSGPRPVVLSGPSGAGKSTLLKRLLQEHSGIFGFSVSHTTRNPRPGEENGKDYYFVTREVMQRDIAAGDFIEHAEFSGNLYGTSKVAVQAVQAMNRICVLDVDLQGVRNIKATDLRPIYISVQPPSLHVLEQRLRQRNTETEESLVKRLAAAQADMESSKEPGLFDVVIINDSLDQAYAELKEALSEEIKKAQRTGA [GUK1] , thanks.
-0.1

Supply reported thermal stability score belonging to this sequence: MAAVDSFYLLYREIARSCNCYMEALALVGAWYTARKSITVICDFYSLIRLHFIPRLGSRADLIKQYGRWAVVSGATDGIGKAYAEELASRGLNIILISRNEEKLQVVAKDIADTYKVETDIIVADFSSGREIYLPIREALKDKDVGILVNNVGVFYPYPQYFTQLSEDKLWDIINVNIAAASLMVHVVLPGMVERKKGAIVTISSGSCCKPTPQLAAFSASKAYLDHFSRALQYEYASKGIFVQSLIPFYVATSMTAPSNFLHRCSWLVPSPKVYAHHAVSTLGISKRTTGYWSHSIQFLFAQYMPEWLWVWGANILNRSLRKEALSCTA [HSDL1]
-1.62

====

- Tested on: HeLa Kyoto
- assay.name: solubility in G1/S (NP-40 vs SDS abundance) (log2 ratio); higher = more soluble
- test.conditions: cell cycle stage: G1/S
Catalogue of sequences with associated solubility in G1/S (log2)

As a guide, the following entries are already answered.
MGEAGAGAGASGGPEASPEAEVVKLLPFLAPGARADLQAAAVRHVLALTGCGPGRALLAGQAALLQALMELAPASAPARDAARALVNLAADPGLHETLLAADPGLPARLMGRALDPQWPWAEEAAAALANLSREPAPCAALMAALAAAEPADSGLERLVRALCTPGYNARAPLHYLAPLLSNLSQRPAARAFLLDPDRCVVQRLLPLTQYPDSSVRRGGVVGTLRNCCFEHRHHEWLLGPEVDILPFLLLPLAGPEDFSEEEMERLPVDLQYLPPDKQREPDADIRKMLVEAIMLLTATAPGRQQVRDQGAYLILRELHSWEPEPDVRTACEKLIQVLIGDEPERGMENLLEVQVPEDVEQQLQQLDCREQEQLERELAPEPWVERATPT [HGH1] | 0.131
MVGYDPKPDGRNNTKFQVAVAGSVSGLVTRALISPFDVIKIRFQLQHERLSRSDPSAKYHGILQASRQILQEEGPTAFWKGHVPAQILSIGYGAVQFLSFEMLTELVHRGSVYDAREFSVHFVCGGLAACMATLTVHPVDVLRTRFAAQGEPKVYNTLRHAVGTMYRSEGPQVFYKGLAPTLIAIFPYAGLQFSCYSSLKHLYKWAIPAEGKKNENLQNLLCGSGAGVISKTLTYPLDLFKKRLQVGGFEHARAAFGQVRRYKGLMDCAKQVLQKEGALGFFKGLSPSLLKAALSTGFMFFSYEFFCNVFHCMNRTASQR [SLC25A19] | -0.155
MIVQRVVLNSRPGKNGNPVAENFRMEEVYLPDNINEGQVQVRTLYLSVDPYMRCRMNEDTGTDYITPWQLSQVVDGGGIGIIEESKHTNLTKGDFVTSFYWPWQTKVILDGNSLEKVDPQLVDGHLSYFLGAIGMPGLTSLIGIQEKGHITAGSNKTMVVSGAAGACGSVAGQIGHFLGCSRVVGICGTHEKCILLTSELGFDAAINYKKDNVAEQLRESCPAGVDVYFDNVGGNISDTVISQMNENSHIILCGQISQYNKDVPYPPPLSPAIEAIQKERNITRERFLVLNYKDKFEPGILQLSQWFKEGKLKIKETVINGLENMGAAFQSMMTGGNIGKQIVCISEEISL [PTGR2] | 0.0876
MEDTPLVISKQKTEVVCGVPTQVVCTAFSSHILVVVTQFGKMGTLVSLEPSSVASDVSKPVLTTKVLLGQDEPLIHVFAKNLVAFVSQEAGNRAVLLAVAVKDKSMEGLKALREVIRVCQVW [PSMG3] | 0.13
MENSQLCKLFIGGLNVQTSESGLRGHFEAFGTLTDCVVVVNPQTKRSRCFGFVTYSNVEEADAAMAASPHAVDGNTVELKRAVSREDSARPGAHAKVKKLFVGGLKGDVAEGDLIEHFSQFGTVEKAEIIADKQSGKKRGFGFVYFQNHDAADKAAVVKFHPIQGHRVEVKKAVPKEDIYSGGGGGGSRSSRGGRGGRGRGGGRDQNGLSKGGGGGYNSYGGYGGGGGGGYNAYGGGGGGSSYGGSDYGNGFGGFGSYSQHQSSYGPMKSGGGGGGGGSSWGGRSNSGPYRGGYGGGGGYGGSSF [HNRNPA0] | -0.218
MATGDLKRSLRNLEQVLRLLNYPEEVDCVGLIKGDPAASLPIISYSFTSYSPYVTELIMESNVELIAKNDLRFIDAVYKLLRDQFNYKPILTKKQFIQCGFAEWKIQIVCDILNCVMKKHKELSSLQKIPSQQRKKISSGKSEPPLGNEKISAEAVGVDISGRFMTSGKKKAVVIRHLYNEDNVDISEDTLSPITDVNEAVDVSDLNATEIKMPEVKVPEIKAEQQDVNVNPEITALQTMLAECQENLKKLTSIEKRLDCLEQKMKGKVMVDENTWTNLLSRVTLLETEMLLSKKNDEFIEFNEVSEDYASCSDMDLLNPHRKSEVERPASIPLSSGYSTASSDSTPRASTVNYCGLNEISEETTIQKMERMKKMFEETAELLKCPNHYL [CEP44] | 0.259
MLSSTAMYSAPGRDLGMEPHRAAGPLQLRFSPYVFNGGTILAIAGEDFAIVASDTRLSEGFSIHTRDSPKCYKLTDKTVIGCSGFHGDCLTLTKIIEARLKMYKHSNNKAMTTGAIAAMLSTILYSRRFFPYYVYNIIGGLDEEGKGAVYSFDPVGSYQRDSFKAGGSASAMLQPLLDNQVGFKNMQNVEHVPLSLDRAMRLVKDVFISAAERDVYTGDALRICIVTKEGIREETVSLRKD [PSMB1] | -0.00543
MAGSVADSDAVVKLDDGHLNNSLSSPVQADVYFPRLIVPFCGHIKGGMRPGKKVLVMGIVDLNPESFAISLTCGDSEDPPADVAIELKAVFTDRQLLRNSCISGERGEEQSAIPYFPFIPDQPFRVEILCEHPRFRVFVDGHQLFDFYHRIQTLSAIDTIKINGDLQITKLG [LGALSL] | 0.36

Using the record for MKSNPAIQAAIDLTAGAAGGTACVLTGQPFDTMKVKMQTFPDLYRGLTDCCLKTYSQVGFRGFYKGTSPALIANIAENSVLFMCYGFCQQVVRKVAGLDKQAKLSDLQNAAAGSFASAFAALVLCPTELVKCRLQTMYEMETSGKIAKSQNTVWSVIKSILRKDGPLGFYHGLSSTLLREVPGYFFFFGGYELSRSFFASGRSKDELGPVPLMLSGGVGGICLWLAVYPVDCIKSRIQVLSMSGKQAGFIRTFINVVKNEGITALYSGLKPTMIRAFPANGALFLAYEYSRKLMMNQLEAY [SLC25A15] , state its measured solubility in G1/S (log2).
0.00397

Consider the sequence MFHGIPATPGIGAPGNKPELYEEVKLYKNAREREKYDNMAELFAVVKTMQALEKAYIKDCVSPSEYTAACSRLLVQYKAAFRQVQGSEISSIDEFCRKFRLDCPLAMERIKEDRPITIKDDKGNLNRCIADVVSLFITVMDKLRLEIRAMDEIQPDLRELMETMHRMSHLPPDFEGRQTVSQWLQTLSGMSASDELDDSQVRQMLFDLESAYNAFNRFLHA [VPS28] . State its measured solubility in G1/S (log2).
0.19
